// provenance: patent US20250313631A1

# Study system: T1, recombinant mouse VISTA (His-tagged) (mouse, UniProt Q9D659 33-191)
# T1 construct: also called murine VISTA; mVISTA
# T1 sequence (looked up): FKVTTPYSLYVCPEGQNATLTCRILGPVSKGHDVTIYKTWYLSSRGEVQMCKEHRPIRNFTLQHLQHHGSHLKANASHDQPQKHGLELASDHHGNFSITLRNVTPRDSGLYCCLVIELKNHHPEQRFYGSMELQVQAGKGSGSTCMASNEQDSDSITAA
# Assay notes: BLI (Octet), 1:1 global fit, mouse VISTA captured
List of koff values.

- Binder: "anti-VISTA clone V4-C1 IgG1 (antibody, V domains shown) VH: QVQLQESGPGLVKPSDTLSLTCTVSGYSITSDYAWNWIRQTPGKGLEWIGYITYSGYISYNPSLRSRVTISRDTSKNQFSLKLSSVTAADTAVYSCARALYYPWYFDVWGTGTTVTVSS VL: EIVITQSPATLSLSPGERATLSCRASSSVGYIHWYQQKPGQAPRPLIYATSNRATGIPARFSGSGSGTDNTLTISSLEPEDSAVYYCQQWSSYPPITFGGGTKLEVKR"
  Endpoint unit: "s⁻¹"
  koff: 0.0162
- Binder: "anti-VISTA clone V4-C24 IgG1 (antibody, V domains shown) VH: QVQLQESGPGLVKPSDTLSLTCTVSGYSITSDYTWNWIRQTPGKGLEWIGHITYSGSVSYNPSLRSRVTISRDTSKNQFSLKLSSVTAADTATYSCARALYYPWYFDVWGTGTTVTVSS VL: EIVLTQSPATLSLSPGERATLSCRASSSVGYIHWYQQKPGQAPRPLIYTTSYRATGIPARFSGSGSGTDNTLTISSLEPEDSAVYYCQQWSSYPPITFGGGTKLEVKR"
  Endpoint unit: "s⁻¹"
  koff: "7.6e-05"
- Binder: "anti-VISTA clone V4-C9 IgG1 (antibody, V domains shown) VH: QVQLQESGPGLVKPSDTLSLTCTVSGYSITSDYAWNWIRQTPGKGLEWIGYITYSGYVSYNPSLRSRVTISRDTSKNQFSLKLSSVTAADTAVYSCARALYYPWYFDVWGTGTTVTVSS VL: EIVLTQSPATLSLSPGERATLSCRASSSVGYIHWYQQKPGQAPRPLIYATSNRATGIPARFSGSGSGTDNTLTISSLEPEDSAVYYCQQWSSYPPITFGGGTKLEVKR"
  Endpoint unit: "s⁻¹"
  koff: 0.00104
- Binder: "anti-VISTA clone V4-C27 IgG1 (antibody, V domains shown) VH: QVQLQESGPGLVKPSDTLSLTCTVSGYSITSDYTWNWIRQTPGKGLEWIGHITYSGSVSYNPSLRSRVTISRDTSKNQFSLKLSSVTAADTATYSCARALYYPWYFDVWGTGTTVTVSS VL: EIVLTQSPATLSLSPGERATLSCRASSSVGYIHWYQQKPGQAPRPLIYATYNRATGIPARFSGSGSGTDNTLTISSLEPEDSAVYYCQQWSSYPPITFGGGTKLEVKR"
  Endpoint unit: "s⁻¹"
  koff: 0.00016
